target: T1, 15-mer peptide LGIWGCSGKLICTTT (SEQ ID NO:1) (HIV, not fully specified; cysteine pairing not given here); experiment: indirect ELISA; 15-mer peptide coated 1 ug/ml in DTT; antibody at 37 ng/ml
T1 construct: also called U1731DB060-1; U173DB060-1
T1 peptide: LGIWGCSGKLICTTT
No end group written: not given here.
Returns one of Criterion met or Criterion not met; Criterion met when ELISA OD is >= 0.08 OD.

binder: HIV-binding peptide #6 (antibody, human IgG1, kappa, V domains shown, Recombinant, fully human immunoglobulin; also called U1205DB020-6) VH: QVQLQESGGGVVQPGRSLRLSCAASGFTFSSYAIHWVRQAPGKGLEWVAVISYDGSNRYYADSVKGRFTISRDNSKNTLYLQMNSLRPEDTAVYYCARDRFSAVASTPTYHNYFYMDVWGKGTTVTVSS VL: DIQMTQSPSSLSASVGDRVTITCQASQDISNYLAWYQQKPGQAPRLLIYDASNLETGVPSRFSGSGSGTDFTLTISSLQPEDLATYYCQQYDNTPYTFGQGTKLEIKR
label.class: Criterion not met

Exam item: decide whether the reported ELISA OD for HIV-binding peptide #4 (antibody, human IgG1, kappa, V domains shown, Recombinant, fully human immunoglobulin; also called U1205DB020-4) VH: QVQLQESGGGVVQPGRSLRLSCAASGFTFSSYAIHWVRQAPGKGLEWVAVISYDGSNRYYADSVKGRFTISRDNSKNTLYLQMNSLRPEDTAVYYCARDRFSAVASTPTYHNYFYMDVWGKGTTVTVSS VL: DIQMTQSPSSLSASVGDRVTITCQASQDINNYLAWYQQKPGQAPRLLIYDASNLETGVPSRFSGSGSGTDFTLTISSLQPEDLATYYCQQYDNLPYTFGQGTKLEIKR is at least 0.08 OD.
Criterion not met

Can you handle HIV-binding peptide #9Q (antibody, human IgG1, V domains shown) VH: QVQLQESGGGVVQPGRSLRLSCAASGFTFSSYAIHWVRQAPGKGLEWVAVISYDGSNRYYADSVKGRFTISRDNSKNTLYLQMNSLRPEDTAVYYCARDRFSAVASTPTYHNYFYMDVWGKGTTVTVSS next?
Criterion met

Queued: HIV-binding peptide #11Q (antibody, V domains shown, Heavy chain only with variant CH1/CH2 (hinge cysteines replaced by serines)) VH: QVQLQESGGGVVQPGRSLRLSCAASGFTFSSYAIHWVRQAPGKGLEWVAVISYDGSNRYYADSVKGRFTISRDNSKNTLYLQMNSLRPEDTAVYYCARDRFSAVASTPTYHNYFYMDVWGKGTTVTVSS
Criterion met

Now give it for HIV-binding peptide #3 (antibody, human IgG1, kappa, V domains shown, Recombinant, fully human immunoglobulin; also called U1205DB020-3) VH: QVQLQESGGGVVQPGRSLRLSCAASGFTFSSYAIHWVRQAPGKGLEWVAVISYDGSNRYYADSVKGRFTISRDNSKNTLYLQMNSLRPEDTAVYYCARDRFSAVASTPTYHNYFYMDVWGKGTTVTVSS VL: DIQMTQSPSSLSASVGDRVTITCQASQDVNNYLAWYQQKPGQAPRLLIYDASNLETGVPSRFSGSGSGTDFTLTISSLQPEDLATYYCQQYDNLPYTFGQGTKLEIKR too.
Criterion not met
